# ASSAY COMMENT: Viability Counterscreen for Confirmatory qHTS for Inhibitors of ATXN expression; further: nearly all actives have a fitted effect of over 50% in size; further: potency means the concentration at half of the fitted maximal effect
# CONDITION CONTEXT: HEK-293 ATXN2-luc cells viability, CellTiter-Fluor, 24 h
Out of some 2,100 compounds screened, about 260 (12%) were called active. Another 58% or so got no clear call; they are omitted. Some of the results follow.
ENDPOINT LABEL: Potency

These recorded examples may help you get a feel for the data.
> print(dat)
                                   compound    observed.value
1  CC1CCN(Cc2c(C(=O)N/N=C/c3cc(Br)ccc3O)nnn2-c2nonc2N)CC1          inactive
2  Cc1ccc(CN2CCC(c3nc4ccc(Cl)cc4[nH]3)CC2)cc1          inactive
3  N#Cc1cc2cc3c(cc2nc1SCC(=O)N1CCOCC1)OCCO3          inactive
4       O=C(CCc1ccccc1)NNC(=O)c1cc(Cl)ccc1O          inactive
5  O=c1c2c(nc3c(-c4cccc(Br)c4)c[nH]n13)CCCC2  12.6 µM (active)
6                   OC1(c2ccc(Br)cc2)CCNCC1          inactive
7  CCCCOc1ccccc1NC(=O)Cn1c(-c2nonc2N)nc2ccccc21  11.2 µM (active)
8  CCN(CC)c1nc(-c2ccccn2)nc(-c2ccccc2)c1C#N  8.91 µM (active)

So what does the record say about Potency for CCn1c2ccccc2c2cc(/C=N/n3cnnc3)ccc21 ?
inactive

So what does the record say about Potency for CC(=O)c1ccc(C(=O)Nc2nnc(-c3ccc(Cl)cc3)o2)cc1 ?
inactive

So what does the record say about Potency for CC1CCCCN1S(=O)(=O)c1ccc(C(=O)Nc2nnc(-c3ccccc3Cl)o2)cc1 (stereo not drawn) ?
inactive

So what does the record say about Potency for COc1cc(/C=C(/C#N)C(=O)NCCc2c[nH]c3ccccc23)ccc1OCc1ccccc1F ?
25.1 µM (active)

So what does the record say about Potency for COc1ccc(CCNC(=O)c2cc3c(F)cccc3s2)cc1OC ?
inactive
